Listing: pIC50 of selected compounds
target: NOX5 (Homo sapiens)
Construct: expressed in transfected cells
protocolDetails: Amplex Red/HRP H2O2 detection in NOX5-expressing HEK293 cells
Type: cell-based
condition: PMA 0.1 μM and ionomycin 1 μM, read-out: IC50 NOX5 (HEK) AR
Units for pIC50: none; it is -log10 of a concentration expressed in mol/L.

[
  {
    "itemSmiles": "Cc1c2c(=O)n(-c3ccccc3Cl)[nH]c2cc(=O)n1Cc1ccccn1",
    "pIC50": 5.10
  },
  {
    "itemSmiles": "O=c1c2ccccc2[se]n1-c1ccccc1",
    "pIC50": 5.68
  }
]

Asked: GET /values?readout=pIC50&item= `COc1cc(C(C)=O)cc(-c2cc(C(C)=O)cc(OC)c2O)c1O`
Given back: 4.78

----------
target: human NOX4 (Homo sapiens)
Sequence (Q9NPH5 whole entry): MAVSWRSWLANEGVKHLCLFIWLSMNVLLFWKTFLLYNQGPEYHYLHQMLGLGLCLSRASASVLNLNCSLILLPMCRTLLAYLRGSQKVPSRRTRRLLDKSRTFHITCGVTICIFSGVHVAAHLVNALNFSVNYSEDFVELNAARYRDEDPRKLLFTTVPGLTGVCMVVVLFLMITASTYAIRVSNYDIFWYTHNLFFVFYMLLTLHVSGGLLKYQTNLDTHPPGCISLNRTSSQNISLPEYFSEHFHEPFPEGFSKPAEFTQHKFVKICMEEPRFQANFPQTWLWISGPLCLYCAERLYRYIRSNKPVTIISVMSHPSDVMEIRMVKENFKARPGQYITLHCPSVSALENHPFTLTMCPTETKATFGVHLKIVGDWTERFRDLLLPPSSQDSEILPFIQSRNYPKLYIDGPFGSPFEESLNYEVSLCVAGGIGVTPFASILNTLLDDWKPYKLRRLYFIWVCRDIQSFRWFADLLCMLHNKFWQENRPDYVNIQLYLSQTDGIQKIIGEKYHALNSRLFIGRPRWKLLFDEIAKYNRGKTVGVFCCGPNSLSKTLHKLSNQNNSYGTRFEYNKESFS
Sequence (P13498 whole entry partner): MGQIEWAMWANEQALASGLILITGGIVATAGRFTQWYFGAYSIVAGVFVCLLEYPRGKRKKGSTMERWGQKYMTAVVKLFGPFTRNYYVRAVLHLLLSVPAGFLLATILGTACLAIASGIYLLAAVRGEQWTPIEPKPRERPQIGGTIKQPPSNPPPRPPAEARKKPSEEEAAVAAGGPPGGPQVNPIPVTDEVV
protocolDetails: Amplex Red/HRP H2O2 detection in tetracycline-induced NOX4 HEK293 T-REx cells
recordedMetric: IC50

Take a look at these entries with their results.
[
  {
    "molecule": "COc1cc(C(C)=O)cc(-c2cc(C(C)=O)cc(OC)c2O)c1O [Diapocynin, diapocynin]",
    "recordedMetric": "IC50",
    "result": "> 50 µM"
  },
  {
    "molecule": "COc1cc(C(C)=O)ccc1O [Apocynin, apocynin]",
    "recordedMetric": "IC50",
    "result": "> 50 µM"
  },
  {
    "molecule": "O=c1c2ccccc2[se]n1-c1ccccc1 [Ebselen, ebselen]",
    "recordedMetric": "IC50",
    "result": "4.1 µM"
  }
]

Asked: GET /values?readout=IC50&item= Cc1c2c(=O)n(-c3ccccc3Cl)[nH]c2cc(=O)n1Cc1ccccn1 [GKT136901]
Given back: 2.7 µM

----------
protocolDetails: in vitro
condition: human
Listing: CC50 at 1 h of selected compounds

[
  {
    "compound": "c1ccc2c(c1)[I+]c1ccccc1-2 [DPI, diphenylene iodonium chloride]",
    "recordedMetric": "CC50 at 1 h",
    "result": "> 50 µM"
  }
]

Please examine the following record next.
Asked: GET /values?readout=CC50 at 1 h&item= `COc1cc(C(C)=O)ccc1O`
Given back: > 50 µM

----------
target: NOX5 (Homo sapiens)
Construct: expressed in transfected cells
Sequence (Q96PH1 19-737 isoform Q96PH1-3 limits assumed): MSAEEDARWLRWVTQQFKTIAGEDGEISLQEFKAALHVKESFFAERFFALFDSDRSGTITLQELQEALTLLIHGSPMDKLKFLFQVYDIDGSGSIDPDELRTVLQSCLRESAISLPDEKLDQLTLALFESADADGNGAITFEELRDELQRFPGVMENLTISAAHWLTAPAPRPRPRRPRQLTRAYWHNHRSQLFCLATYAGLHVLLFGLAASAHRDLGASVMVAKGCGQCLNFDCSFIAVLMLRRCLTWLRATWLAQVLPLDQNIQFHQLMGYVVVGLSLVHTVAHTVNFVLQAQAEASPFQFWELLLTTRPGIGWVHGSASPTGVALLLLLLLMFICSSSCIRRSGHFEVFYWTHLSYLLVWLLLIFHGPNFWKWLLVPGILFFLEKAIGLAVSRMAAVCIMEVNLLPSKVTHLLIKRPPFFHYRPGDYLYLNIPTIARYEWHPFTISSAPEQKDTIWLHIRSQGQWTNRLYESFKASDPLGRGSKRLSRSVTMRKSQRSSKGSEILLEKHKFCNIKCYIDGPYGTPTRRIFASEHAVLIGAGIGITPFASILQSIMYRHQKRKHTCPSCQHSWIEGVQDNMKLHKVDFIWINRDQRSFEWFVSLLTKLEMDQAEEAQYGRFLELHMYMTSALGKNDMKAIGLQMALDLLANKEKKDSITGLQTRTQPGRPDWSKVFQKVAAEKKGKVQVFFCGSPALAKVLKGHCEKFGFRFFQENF
protocolDetails: WST-1 O2•- detection in NOX5-expressing HEK293 cells
Type: cell-based
condition: WST-1, PMA 0.1 μM and ionomycin 1 μM; read-out: IC50 NOX5 (HEK) WST-1
Listing: IC50 of selected compounds

Take a look at these entries with their results.
[
  {
    "itemSmiles": "Cc1c2c(=O)n(-c3ccccc3Cl)[nH]c2cc(=O)n1Cc1ccccn1",
    "recordedMetric": "IC50",
    "result": "> 50 µM"
  },
  {
    "itemSmiles": "COc1cc(C(C)=O)cc(-c2cc(C(C)=O)cc(OC)c2O)c1O",
    "recordedMetric": "IC50",
    "result": "> 50 µM"
  }
]

Asked: GET /values?readout=IC50&item= `COc1cc(C(C)=O)ccc1O`
Given back: > 50 µM
